- Tested on: Mus musculus
- Protocol notes: Anticonvulsant activity in ip dosed albino mouse assessed as protection against MES-induced seizures after 4 hrs
- Format: functional
Measure: ED50

Cc1nn(-c2ccccc2)c(Cl)c1/C=N/NC(=O)c1ccc(F)cc1
100 mg/kg

Provide only the value of recorded ED50 for Cc1nn(-c2ccccc2)c(Cl)c1/C=N/NC(=O)c1ccc([N+](=O)[O-])cc1 300 mg/kg

Indicate its recorded ED50; the molecule in question is O=C1NC(=O)C(c2ccccc2)(c2ccccc2)N1 30 mg/kg

Read off the recorded ED50 for Cc1nn(-c2ccccc2)c(Cl)c1/C=N/NC(=O)Cc1cccc2ccccc12 100 mg/kg

Name the recorded ED50 of the item Cc1nn(-c2ccccc2)c(Cl)c1/C=N/NC(=O)c1ccc(Cl)cc1 in your answer. 300 mg/kg

For the molecule Cc1nn(-c2ccccc2)c(Cl)c1/C=N/NC(=O)Cc1ccc(Cl)cc1 , report ED50. 300 mg/kg
